Measured OKT4a signal (anti-hu A647) with supernatant values are reported for all entries that follow.
Target under test: T1, human CD4 on cells (SKW3 cells; human PBMCs) (human, UniProt P01730 26-458)
T1 construct: whole, on cells; SKW3 CD4 knockout cells served as the negative cell line in the primary screen; also called hCD4; huCD4
Test name: FACS binning on SKW3 cells; competitor OKT4a; background 5000, max binding 35000
Measured endpoint: OKT4a signal (anti-hu A647) with supernatant

INSERT INTO measurements (binder, value) VALUES
  ('75110_06G04A (antibody, V domains shown, Tested as non-clonal AlivaMab Mouse Kappa hybridoma supernatant (detected with anti-mouse Fc gamma and anti-human kappa)) VH: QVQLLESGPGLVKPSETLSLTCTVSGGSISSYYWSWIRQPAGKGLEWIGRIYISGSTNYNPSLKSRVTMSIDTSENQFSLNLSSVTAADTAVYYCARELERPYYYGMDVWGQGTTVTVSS VL: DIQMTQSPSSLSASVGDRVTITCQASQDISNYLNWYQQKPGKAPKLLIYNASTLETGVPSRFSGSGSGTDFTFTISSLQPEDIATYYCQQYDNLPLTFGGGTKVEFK', 30800),
  ('75110_08K12A (antibody, V domains shown, Tested as non-clonal AlivaMab Mouse Kappa hybridoma supernatant (detected with anti-mouse Fc gamma and anti-human kappa)) VH: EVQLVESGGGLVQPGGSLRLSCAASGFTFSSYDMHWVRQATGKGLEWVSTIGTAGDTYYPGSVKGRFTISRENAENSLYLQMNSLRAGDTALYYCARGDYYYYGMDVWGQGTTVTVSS VL: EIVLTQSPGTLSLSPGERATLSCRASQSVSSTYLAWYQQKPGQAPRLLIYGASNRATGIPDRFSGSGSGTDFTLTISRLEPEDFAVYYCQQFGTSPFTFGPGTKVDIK', 39200),
  ('75110_08D24A (antibody, V domains shown, Tested as non-clonal AlivaMab Mouse Kappa hybridoma supernatant (detected with anti-mouse Fc gamma and anti-human kappa)) VH: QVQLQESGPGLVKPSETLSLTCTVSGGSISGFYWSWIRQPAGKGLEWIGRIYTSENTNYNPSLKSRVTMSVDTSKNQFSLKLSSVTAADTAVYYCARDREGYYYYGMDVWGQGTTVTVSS VL: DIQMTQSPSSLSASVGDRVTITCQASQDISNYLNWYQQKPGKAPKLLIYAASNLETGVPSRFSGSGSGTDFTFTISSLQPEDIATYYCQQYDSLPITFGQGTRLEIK', 42500),
  ('75110_14P08A (antibody, V domains shown, Tested as non-clonal AlivaMab Mouse Kappa hybridoma supernatant (detected with anti-mouse Fc gamma and anti-human kappa)) VH: QVQLQESGPGLVKSSETLSLTCTDSGDSIRSYYWNWIRQPAGKGLEWIGRIYASGSTNYNPSLKSRVIMSADTSKNRFSLKLSSVTAADTAVYYCARDGGVGDSLDYWGQGTLVTVSS VL: DIVMTQTPLSLPVTPGEPASISCRSSQSLLDSDDGNTYLDWYLQKPGQSPQLLIYTLSYRASGVPDRFSGSGSGTDFTLKISRVEAEDVGVYYCMQRIEFPFTFGPGTKVDIK', 38400),
  ('75110_08G08A (antibody, V domains shown, Tested as non-clonal AlivaMab Mouse Kappa hybridoma supernatant (detected with anti-mouse Fc gamma and anti-human kappa)) VH: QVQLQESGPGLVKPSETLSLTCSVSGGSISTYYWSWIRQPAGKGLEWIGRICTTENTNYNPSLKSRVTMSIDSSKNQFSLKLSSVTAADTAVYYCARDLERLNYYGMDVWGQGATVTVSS VL: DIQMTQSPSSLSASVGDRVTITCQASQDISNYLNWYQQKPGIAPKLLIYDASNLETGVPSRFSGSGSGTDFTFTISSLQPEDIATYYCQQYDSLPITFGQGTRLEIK', 38400);
